- protocol description: ATG_PPRE_CIS: Attagene CIS-FACTORIAL HepG2 Assay for human Peroxisome Proliferator-activated Response Element (PPRE) (AID 2282958)
- measurement parameters: HepG2 PPRE cis-element reporter, Attagene transcription factor profiling; actives raise or lower the signal
The source made the active and inactive calls. How the source made its calls: active means hit-call score of the fitted dose curve at least 0.9, where 1 is the maximum; inactive means score below 0.9.
Permitted responses: active, inactive

Challenge: Per the records of this test, what outcome belongs to CCCCCCCCCCCCc1ccccc1S(=O)(=O)O ?
Response given: inactive

Challenge: GET /call?item= CC(C)(C)CC(C)(C)c1ccc(O)c(-n2nc3ccccc3n2)c1 returns the recorded outcome of this test.
Response given: inactive

Challenge: Which result was noted for this compound in the test: O=C1OC2(c3ccccc31)c1cc(Br)c(O)c(Br)c1Oc1c2cc(Br)c(O)c1Br
Response given: inactive

Challenge: State the result this test recorded for CC(C)CCCCCCOC(=O)CCCCC(=O)OCCCCCCC(C)C .
Response given: inactive

Challenge: What is the recorded call for this compound in the test? CCCOc1sc(C(=O)N2CCC(c3cc(CN)ccc3F)CC2)c(C)c1Br
Response given: inactive
